Efficacy (GABA)% overview
- system: h-GABA-A α2β2γ1 (Homo sapiens (Human), UniProt P47869+Q8N1C3)
- experiment_description: Two-electrode voltage clamp electrophysiology in Xenopus oocytes expressing GABAA receptors
- Assay type: cell-based
- condition_summary: % modulation of GABA EC20 = 100*(Fold increase−1), compound at 30-fold Ki
test_readout: Efficacy (GABA)%

smiles_string=Cc1cc(-c2nnc3n2-c2ccc(Cl)c(Cl)c2C(c2c(F)cccc2F)=N[C@H]3C)nc(C)n1 test_readout="Efficacy (GABA)%" recorded_value=52%
smiles_string=Cc1nnc2n1-c1ccc(Cl)c(Cl)c1C(c1c(F)cccc1F)=N[C@H]2C test_readout="Efficacy (GABA)%" recorded_value=45%
smiles_string=C[C@@H]1N=C(c2c(F)cccc2F)c2c(ccc(Cl)c2Br)-n2c(-c3cnn(C)c3)nnc21 test_readout="Efficacy (GABA)%" recorded_value=52%
smiles_string=C[C@@H]1N=C(c2c(F)cccc2F)c2c(ccc(Cl)c2Cl)-n2c(-c3ccncn3)nnc21 test_readout="Efficacy (GABA)%" recorded_value=100%

Ref: patent US20240002393A1
